# Target or system: UniProt P55085
# Test description: Determination of changes in cytosolic calcium in transfected CHO-K1 cells
# Type: cell-based
# Test settings: intracellular calcium mobilization, CHO-K1 cells transfected with PAR2, Fura-2
Listed molecules paired with reported EC50

# Molecule, EC50 (µM)
measured = [
    ("C/C(=N\\NC(=O)C(NC(=O)c1ccccc1)c1n[nH]c(=O)c2ccccc12)c1cc(C)cc(C)c1 (centres unmarked)", 7.94),
    ("C/C(=N\\NC(=O)C(NC(=O)c1ccccc1)c1n[nH]c(=O)c2ccccc12)c1cccc(Br)c1 (centres unmarked)", 3.98),
]

---

Listed molecules paired with reported pEC50
# Target or system: human PAR2 (Homo sapiens)
# Sequence (P55085 26-397): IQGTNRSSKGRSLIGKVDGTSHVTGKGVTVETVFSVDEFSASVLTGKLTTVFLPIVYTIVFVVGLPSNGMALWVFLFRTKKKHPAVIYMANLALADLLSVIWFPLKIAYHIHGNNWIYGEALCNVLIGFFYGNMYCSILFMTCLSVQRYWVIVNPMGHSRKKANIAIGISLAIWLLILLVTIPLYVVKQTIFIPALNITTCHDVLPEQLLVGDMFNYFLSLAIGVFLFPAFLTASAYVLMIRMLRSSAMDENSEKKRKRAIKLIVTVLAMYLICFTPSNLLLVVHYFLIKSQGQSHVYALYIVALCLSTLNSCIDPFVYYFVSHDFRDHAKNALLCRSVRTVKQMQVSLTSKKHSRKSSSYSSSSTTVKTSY
# Test description: Receptor Selection and Amplification Technology (R-SAT) functional receptor assay
# Format: cell-based
# Design: expressed in transfected cells; host or cells: NIH3T3 cells, pSI-derived mammalian expression vector
# Test settings: NIH3T3 cells transfected with PAR2, PAR2 activation, negative log of EC50 in Molar
pEC50: −log10 of the molar value.
Readout: pEC50

# Molecule, Target or system, Measured
records = [
    ("CC/C(=N\\NC(=O)C(NC(=O)c1ccccc1)c1n[nH]c(=O)c2ccccc12)c1cccc(Br)c1 (centres unmarked)", "human PAR2 (Homo sapiens)", 6.30),
    ("C/C(=N\\NC(=O)C(NC(=O)c1ccccc1)c1n[nH]c(=O)c2ccccc12)c1cccc(Br)c1 (centres unmarked)", "human PAR2 (Homo sapiens)", 6.90),
    ("C/C(=N\\NC(=O)C(NC(=O)c1ccccc1)c1n[nH]c(=O)c2ccccc12)c1cccc(C(F)(F)F)c1 (centres unmarked)", "human PAR2 (Homo sapiens)", 6.60),
    ("C/C(=N\\NC(=O)C(NC(=O)c1ccccc1)c1n[nH]c(=O)c2ccccc12)c1cccc(Cl)c1 (centres unmarked)", "human PAR2 (Homo sapiens)", 6.80),
    ("C/C(=N\\NC(=O)C(NC(=O)c1ccccc1)c1n[nH]c(=O)c2ccccc12)c1cccc(C#N)c1 (centres unmarked)", "human PAR2 (Homo sapiens)", 6.50),
    ("C/C(=N\\NC(=O)C(NC(=O)c1ccccc1)c1n[nH]c(=O)c2ccccc12)c1cccc(C)c1 (centres unmarked)", "human PAR2 (Homo sapiens)", 6.50),
    ("C/C(=N\\NC(=O)C(NC(=O)c1ccccc1)c1n[nH]c(=O)c2ccccc12)c1cc(C)cc(C)c1 (centres unmarked)", "human PAR2 (Homo sapiens)", 7.10),
    ("COc1cccc(/C(C)=N/NC(=O)C(NC(=O)c2ccccc2)c2n[nH]c(=O)c3ccccc23)c1 (centres unmarked)", "human PAR2 (Homo sapiens)", 6.10),
]

---

# Target or system: human PAR2 (Homo sapiens)
# Test description: Receptor Selection and Amplification Technology (R-SAT) functional receptor assay
# Type: cell-based
# Parameters: expressed in transfected cells; host or cells: NIH3T3 cells, pSI-derived mammalian expression vector
# Test settings: NIH3T3 cells transfected with PAR2, percent maximal activation relative to SLIGRL, read-out: % Efficacy
Listed compounds paired with reported Emax
Readout: Emax (%)

# Compound, Target or system, Measured
data = [
    ("CC/C(=N\\NC(=O)C(NC(=O)c1ccccc1)c1n[nH]c(=O)c2ccccc12)c1cccc(Br)c1 (centres unmarked)", "human PAR2 (Homo sapiens)", 111),
    ("C/C(=N\\NC(=O)C(NC(=O)c1ccccc1)c1n[nH]c(=O)c2ccccc12)c1cccc(C(F)(F)F)c1 (centres unmarked)", "human PAR2 (Homo sapiens)", 77),
    ("C/C(=N\\NC(=O)C(NC(=O)c1ccccc1)c1n[nH]c(=O)c2ccccc12)c1cccc(C#N)c1 (centres unmarked)", "human PAR2 (Homo sapiens)", 132),
    ("C/C(=N\\NC(=O)C(NC(=O)c1ccccc1)c1n[nH]c(=O)c2ccccc12)c1cc(C)cc(C)c1 (centres unmarked)", "human PAR2 (Homo sapiens)", 122),
    ("C/C(=N\\NC(=O)C(NC(=O)c1ccccc1)c1n[nH]c(=O)c2ccccc12)c1cccc(Cl)c1 (centres unmarked)", "human PAR2 (Homo sapiens)", 112),
    ("COc1cccc(/C(C)=N/NC(=O)C(NC(=O)c2ccccc2)c2n[nH]c(=O)c3ccccc23)c1 (centres unmarked)", "human PAR2 (Homo sapiens)", 79),
    ("C/C(=N\\NC(=O)C(NC(=O)c1ccccc1)c1n[nH]c(=O)c2ccccc12)c1cccc(C)c1 (centres unmarked)", "human PAR2 (Homo sapiens)", 118),
    ("C/C(=N\\NC(=O)C(NC(=O)c1ccccc1)c1n[nH]c(=O)c2ccccc12)c1cccc(Br)c1 (centres unmarked)", "human PAR2 (Homo sapiens)", 98),
]

meta.source: patent US20080318960A1
